Listed compounds paired with reported IC50
target: DGAT1 (Homo sapiens); assay: Human DGAT1 IC50 enzyme assay (Flashplate, 14C-labeled acyl-CoA); format: biochemical; set-up: made in house; conditions: second determination; read-out: hDGAT1 IC50(nM) Second
Sequence (O75907 whole entry): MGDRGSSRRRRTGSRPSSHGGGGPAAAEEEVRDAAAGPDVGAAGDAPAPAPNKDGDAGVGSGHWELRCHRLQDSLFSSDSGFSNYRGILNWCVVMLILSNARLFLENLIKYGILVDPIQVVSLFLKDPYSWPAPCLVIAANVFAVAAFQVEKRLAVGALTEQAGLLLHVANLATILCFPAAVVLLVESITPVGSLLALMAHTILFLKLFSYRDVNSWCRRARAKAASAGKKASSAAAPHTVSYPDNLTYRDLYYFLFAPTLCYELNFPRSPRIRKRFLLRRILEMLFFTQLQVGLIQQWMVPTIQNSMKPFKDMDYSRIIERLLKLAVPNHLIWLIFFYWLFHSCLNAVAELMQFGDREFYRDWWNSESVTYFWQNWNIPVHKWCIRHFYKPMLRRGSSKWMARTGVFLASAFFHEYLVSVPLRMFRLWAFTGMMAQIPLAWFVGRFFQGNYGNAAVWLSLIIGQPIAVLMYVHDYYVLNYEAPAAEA
Give the number; nM is assumed, so skip it.

Recorded IC50, per entry:
So for CC(C)(F)Cn1ccc(-c2ccc(N3CCOc4ncnc(N)c4C3=O)cc2Cl)n1 [Compound 95] , the logged IC50 turned out to be 52.9

Lookup result for Nc1ncnc2c1C(=O)N(c1ccc(N3CCN(CCC(=O)O)C3=O)c(Cl)c1)CCO2 [Compound 6] ; measured IC50: 38.5

The compound listed as Cc1nn(CCC(=O)O)c(C)c1-c1ccc(N2CCOc3ncnc(N)c3C2=O)cc1 [Compound 76] has a reported IC50 of 32.4

Reported IC50 of CCc1cc(N2CCOc3ncnc(N)c3C2=O)ccc1-c1cnn(CC(C)C)c1 [Compound 90] : 58

Summary for this compound, NC(=O)Cn1cc(-c2ccc(N3CCOc4ncnc(N)c4C3=O)cc2Cl)cn1 [Compound 46] : IC50 is 102

Others:
For this compound ( CC(C)Cn1cc(-c2ccc(N3C(=O)c4c(N)ncnc4OC[C@H]3C)cc2Cl)cn1 [Compound 96] ), measured IC50 is 71.7

Given item CCC(C(=O)O)n1cc(-c2ccc(N3CCOc4ncnc(N)c4C3=O)cc2C)cn1 (centres unmarked) [Compound 64] , the value recorded as its IC50 is 76.5

// field: IC50; key: Nc1ncnc2c1C(=O)N(c1ccc(-c3cnn(CC(=O)O)c3)c(Cl)c1)CCO2 [Compound 56] ; value = 37.7

====

biological target: DGAT1 (Homo sapiens); test: Human DGAT1 IC50 enzyme assay (Flashplate, 14C-labeled acyl-CoA); format: biochemical; design: made in house; settings: first determination; read-out: hDGAT1 IC50(nM) First
ATTRIBUTE_MEASURED: IC50 (nM)
Your answer should be a plain number; it is taken to be in nM.

# IC50 of CC(C)(Cn1cc(-c2ccc(N3CCOc4ncnc(N)c4C3=O)cc2Cl)cn1)C(=O)O [Compound 71] = 35.9

Continuing:
Reported IC50 ( CC(C)CN1CCN(c2ccc(N3CCOc4ncnc(N)c4C3=O)cc2Cl)C1=O [Compound 29] ) = 37.4

// field: IC50; key: Nc1ncnc2c1C(=O)N(c1ccc(N3CCN(CCC(=O)O)C3=O)c(Cl)c1)CCO2 [Compound 6] ; value = 24.4

Sure, the documented IC50 for CC(C)(Cn1cc(-c2ccc(N3CCOc4ncnc(N)c4C3=O)cc2Cl)cn1)C(=O)N1CCCC1 [Compound 85] is 59.6

Entry CC(C)(F)CN1CCN(c2ccc(N3CCOc4ncnc(N)c4C3=O)cc2Cl)C1=O [Compound 31] , IC50 reported as 23.6

Lab book: IC50 of CN(C)C(=O)C(C)(C)Cn1cc(-c2ccc(N3CCOc4ncnc(N)c4C3=O)cc2Cl)cn1 [Compound 89] noted as 71.2

For reference, reported IC50 for Nc1ncnc2c1C(=O)N(c1ccc(-c3cnn(CCC(=O)O)c3)c(Cl)c1)CCO2 [Compound 35] stands at 24.8

So for Cc1cc(N2CCOc3ncnc(N)c3C2=O)ccc1-c1cnn(CC(=O)O)c1 [Compound 57] , the logged IC50 turned out to be 81.3
